- Tested on: K4 kissing-loop RNA reporter
- assay.notes: apparent KD of K4 kissing-loop reporter; higher = weaker reporter binding
- test.conditions: Eterna round: R107; input ligand: arginine 13.2 mM
assay.metric: apparent KD of K4 kissing-loop reporter (nM)
Field format: number, assumed nM, no unit text.

Example sequences with recorded apparent KD of K4 kissing-loop reporter:
{"seq.string": "AAACGUUGGUCGGAUACCAGCUUGAUCGGAAACGAUCUGCUGGAGUGAUGUUCCAAGUAAAGCCCUUGGCAGCCGACCGACGAAA [MAT - Same State Theophlline B - Mod of Eli - D18]", "units": "nM", "quantitative.result": 65.1}
{"seq.string": "UGACUGGACUGAAGGAGCGCGCGAGACAAAGUCUCGAACUGCUAGUGAUGUUAGCGAAUAACGCAGGUAGGUCGCAGUCUAGUCU [ArgBS 14 #SwitchBubble #StaticStem]", "units": "nM", "quantitative.result": 146}

Field request: apparent KD of K4 kissing-loop reporter | item: GGGAGAAGAGCGGCCGCCACUCAGAAAGAAGAAGAAUAUAGUGAUGUUAUAUAGGAAAGGAAGAAGAGGACCGGGCUUAAGAGGG [#18 K4 Tryptophan B Same State] 132

Would you mind doing UUAGGCUCUCUUCUCAUUCGCUUAACCGAUACCAGAGUAAGCCCUCUCCCUUGGCAGCGGAGUGAUGUUCCGAGUGUUGAUAUUG [theeternabot_exclusion_KL_Theo_A_44] as well? 113

Could you do the same for GAGGUACAGGCGGCCGCCACUAGUGAUGUUAGUGAUGUUUGAUACUGUAUAUAUCGGCGUGUAGAUAGGACCGGGCCUGAUGGAG [znmkmullin] , please? 78.7

* * *

Recorded apparent KD of MS2 coat protein for the following sequences
- Test system: MS2 coat protein
- assay.notes: apparent KD of MS2 coat protein; designed switch direction (-1 OFF switch, 1 ON switch): -1; higher = weaker reporter binding
- test.conditions: Eterna round: R95; input ligand: microRNA oligo, concentration not stated
Enter your answer as a number in nM; do not include the unit.

Please review the following examples before continuing.
{"seq.string": "UUAUUAAGUGUGAGGAUAUGCUGGUCCUUGGAUCAGCAGAAGGCACAUGAGGAUCACCCAUGUACUUUAUUUUA [JL bmx4 3.04] (puzzle: Brourd's mod of Exclusion 4)", "assay.metric": "apparent KD of MS2 coat protein", "units": "nM", "quantitative.result": 15.5}
{"seq.string": "AAAUAAUAGAUAAAAUAAUACAUGAGGAUCACCCAUGUGGGAUGUUGAGGGUGAUACAGGCUUUUUGCUCGUCUUAU (puzzle: Sensor v3, turn-off variant 1)", "assay.metric": "apparent KD of MS2 coat protein", "units": "nM", "quantitative.result": 155}

Kindly review the next sequence as well.
I have this sequence here, UGAACCCAUGUUAGGAUAUCAGGCCGAGGAAGUUCUGAGAAGGGACAUGAGGAUCACCCAUGUAUAAAAGAAAC [Veontiinge] (puzzle: Brourd's mod of Exclusion 4) , and I need its recorded apparent KD of MS2 coat protein. 63.6

* * *

- Tested on: K4 kissing-loop RNA reporter
- assay.notes: apparent KD of K4 kissing-loop reporter; higher = weaker reporter binding
- test.conditions: Eterna round: R107; input ligand: FMN 200 uM
Use Met when the recorded apparent KD of K4 kissing-loop reporter is no lower than 600 nM; use Not met when it is lower.

{"seq.string": "AGUACAAUUGCGGCCGCCACUCAACGCAGAUCAAAGAUCUGCAUUCACUCAGUGAUGUUGAGUGAGAGGACCGGGCAUUUGUACA [Omei KL Tryp B SS B v2]", "category.label": "Met"}
{"seq.string": "UAAUCACUCGAACUUGCAACUCGAGUGGAACGAGGACCGGUACGGCCGCCACUCGAUAACUUGCAGUGAUGUUGCAAGUAAGAAU [(T)''-(K)'-(T)'-(T1)-(T2)-(K1)-(K2)_Design8]", "category.label": "Not met"}
{"seq.string": "ACUGAGCAUGCGGCCGCCACUUCAGAACGUCGCCCAAAGGGCGACGCCUCCACAGUGAUGUUGUGGAGGACCGGGCAUGUUCAGA [Omei KL Tryp B Exc A v2]", "category.label": "Not met"}
{"seq.string": "CUGCCUCACUCGGCCGCCACUGUAUAAAUGUGACAGUGAUGUUGUCGUCGGAAAGGGCACUUAGGCAGGACCGGGAGUUUCAGGC [theeternabot_exclusion_KL_Trp_B_20]", "category.label": "Met"}
{"seq.string": "AGUUCUUGCCGAAGGAGCGAGGCAGAGUGAUGUUCUGCAAAGAGGUCGAAAGACCUCCUGCCUCAGGUAGGUCGCGGCAUGAACA [Omei KL Arginine B Exc A v5]", "category.label": "Met"}

Dear colleague, could you confirm whether UCGCAAGAAUCACUGUGGAGGACCUUGGCCAAGGAUAUCAAAGGAUUGAGAAGGUGGCGCCAAGUGAUGUUUGGAUGCCGGGCAG [theeternabot_exclusion_KL_FMN_A_36] has apparent KD of K4 kissing-loop reporter at or above 600 nM? Not met

Now try UUUGGAGUGGGAGGAUAUCCUAAUAUGGGUGAUGUUAGCGAUGUUGAAAGUGUAGUGAUGUUGUGCGGAGAAGGUCCAGUGUAGA [BDazzled - #14 - Exc. FMN B] . Not met

Next up: `AAAAUAACCCAGUGAUGUUGGUAUACAGAUACCAGCGACGAAAGUCGCCCUUGGCAGCUGUGGACGUACAAAAUAAGUACGUCCU` Met

* * *

- Tested on: MS2 coat protein
- assay.notes: apparent KD of MS2 coat protein; designed switch direction (-1 OFF switch, 1 ON switch): -1; higher = weaker reporter binding
- test.conditions: input ligand: FMN 200 uM
# cutoff 200 nM applies to apparent KD of MS2 coat protein; >= gives YES, < gives NO

Check this sequence for apparent KD of MS2 coat protein at or above 200 nM: UUUUUUUUGCGAGGAUAUGCUUUUAGUAAGUUAGCAGAAGGCGCGUUACAUAGAACCUCUUCUUACAUGAGGAUCACCCAUGUU [JR_ExcNG1_Sub035] (Eterna round: R96, puzzle: Exclusion NG 1) NO

Quick one: GACUUCUGAGGAUAUACAUAGAUUUACAUGAGGAUCACCCAUGUUCCUCUAUGUAUAAAUGUAGAAGGCAGAAGAG [Mat - Exclusion 5 - JL Mod - D65] (Eterna round: R97, puzzle: Exclusion 5) NO

* * *

- Test system: K4 kissing-loop RNA reporter;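 further: bound reporter read as fluorescence of individual clusters on recovered sequencing chips by microscopy, with normalized cluster intensities fitted with a binding model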
- assay.notes: apparent KD of K4 kissing-loop reporter; higher = weaker reporter binding
- test.conditions: Eterna round: R107; input ligand: theophylline 20 uM
# apparent KD of K4 kissing-loop reporter listing for each entry below
Give a bare numeral; the unit nM is implied.

{"seq.string": "UGUCAUUGGUCGGCCGCCACUUCAUAAAAGAGUGAUGUUCUAAAGACGGAUCGAAAGAUCUGUCGAAGGACCGGGACCGAUGACU [TrypBS 19 #SwitchBubble #StaticStem]", "target.under.test": "K4 kissing-loop RNA reporter", "apparent KD of K4 kissing-loop reporter (nM)": 419}

Which apparent KD of K4 kissing-loop reporter value is on record for CUUGGCAUGCGCGAUACCAGCGAACAUAGCAAGCUACGGGUAGUGAUGUUAUCUGAAUAACGCCCUUGGCAGCGCACAUGCCGGC [clock] ? 679

* * *

- Tested on: MS2 coat protein
- assay.notes: apparent KD of MS2 coat protein; designed switch direction (-1 OFF switch, 1 ON switch): -1; higher = weaker reporter binding
- test.conditions: input ligand: FMN 200 uM
The recorded apparent KD of MS2 coat protein of each item maps onto one of these classes: bottom bin = under 30 nM, middle bin = from 30 nM up to 200 nM, top bin = 200 nM and over

A selection of reference data follows.
{"seq.string": "AAUAACGAGCCGGUCCUCCACAUGAGGAUCACCCAUGUGUUCGUCUUGUAAAGUACUAUCACGAAAGUGAUAGUACA [mod jandersonlee2] (Eterna round: R97, puzzle: Sensor, turn-off variant 1)", "category.label": "top bin"}
{"seq.string": "CGUGCGUAUGUGAGGAUAUGCUGGUCCUUGGAUCGGCAGAAGGCACAUGAGGAUCACCCAUGUGGUGUCGUUCC [salish99_Bmod_ex4_094] (Eterna round: R96, puzzle: Brourd's mod of Exclusion 4)", "category.label": "top bin"}
{"seq.string": "AAAUCCCGAGGAUAUACAUGAGGAUCACCCAUGUAAUCAAACAGGGCAAAUUGAUCCGGUAGAAGGCGGACAAU [EX3 A.26] (Eterna round: R97, puzzle: Exclusion 3)", "category.label": "bottom bin"}
{"seq.string": "CUUGCGGAUAAAGGAUAUUGCGGUGACCGGCUCGGCGUACCGAGCCUACAUGAGGAUCACCCAUGUAAGAAGGUUGUCGCUGGU [JL ViennaUCT Qudice mod 3] (Eterna round: R96, puzzle: Exclusion NG 2)", "category.label": "bottom bin"}
{"seq.string": "AGUUAGAUAGGAUAUGCCCGAGAUAACAUGAGGAUCACCCAUGUGACCGAAUCUAUUCUAGCAGAAGGGUUUAGGA [Mod of ViennaUCT 18 - Jieux - Exclusion 5] (Eterna round: R97, puzzle: Exclusion 5)", "category.label": "bottom bin"}

Category of AGGCUGUCAGGAUAUCUGCGCCGUGGUGCGCGGCGUUAUAAAGAGAAGGGACAUGAGGAUCACCCAUGUCCUCA [EX4 B.25] (Eterna round: R97, puzzle: Exclusion 4) , please. middle bin

Quick one: UACAUGAGGAUCACCCAUGUUUUGUCGUGUAUGGUAUUUAUCUAGGAUAUCAAGUUACUUAUUUAUGAGAAGGAGAAUAUUAAU [JMF's solution 30] (Eterna round: R96, puzzle: Exclusion NG 3) middle bin

Entry to check: CGUCUGUAAGGAUAUGGUUACAUAGACAUGAGGAUCACCCAUGUUACGUGGGACUAGUGAUUAGAAGGUACGAACG [EX5 #67] (Eterna round: R97, puzzle: Exclusion 5) middle bin
